Origin of values: patent US9663508B2

Target: human Nav1.7 (Homo sapiens (Human))
Assay: Nav 1.7 in vitro PatchXpress (PX) assay
Assay type: cell-based
# thresholds on IC50 define classes: low (below 60 nM), middle (60 nM to below 90 nM), high (90 nM or more)

> print(dat)
                                    molecule     cat
 1  Cc1ccc(Oc2ncc(-c3ccc(C(=O)NS(C)(=O)=O)cc3OC(F)F)cc2Cl)c(Cl)c1 [Example 465]  middle
 2  Cc1cccc(Cl)c1Oc1ncc(-c2ccc(C(=O)NS(C)(=O)=O)cc2OC(F)F)cc1Cl [Example 468]     low
 3  COc1cc(C(=O)NS(C)(=O)=O)ccc1-c1cnc(Oc2cccc(Cl)c2Cl)c(Cl)c1 [Example 583]     low
 4  CS(=O)(=O)NC(=O)c1cc(Cl)c(-c2cnc(Oc3c(Cl)cccc3Cl)c(Cl)c2)cc1F [Example 592]  middle
 5  Cc1cc(C(=O)NS(C)(=O)=O)c(F)cc1-c1cnc(O[C@H](C)CCc2ccccc2)c(Cl)c1 [Example 638]  middle
 6  Cc1ccc(Oc2ncc(-c3cc(F)c(C(=O)NS(C)(=O)=O)cc3C)cc2Cl)c(C(C)(C)C)c1 [Example 634]    high
 7  COc1cc(C(=O)NS(C)(=O)=O)ccc1-c1cnc(Oc2c(F)ccc(F)c2F)c(Cl)c1 [Example 362]  middle
 8  Cc1cc(Cl)cc(Cl)c1Oc1ncc(-c2cc(F)c(C(=O)NS(C)(=O)=O)cc2Cl)cc1Cl [Example 598]     low
 9  COc1cc(C(=O)NS(C)(=O)=O)ccc1-c1cnc(Oc2cc(Cl)cc(Cl)c2)c(C(F)F)c1 [Example 382]     low
10  Cc1cc(C(=O)NS(C)(=O)=O)c(F)cc1-c1cnc(OC(C(F)(F)F)C(F)(F)F)c(Cl)c1 [Example 686]    high
11  Cc1cc(C(=O)NS(C)(=O)=O)c(F)cc1-c1cnc(Oc2ccc(Cl)c3ccccc23)c(Cl)c1 [Example 613]    high
12  CS(=O)(=O)NC(=O)c1ccc(-c2cnc(Oc3ccc4ccccc4c3)c(Cl)c2)c(OC2COC2)c1 [Example 424]    high
13  CS(=O)(=O)NC(=O)c1cc(Cl)c(-c2cnc(Oc3cc(F)cc(F)c3F)c(Cl)c2)cc1F [Example 589]     low
14  CCC(CC)Oc1ncc(-c2cc(F)c(C(=O)NS(C)(=O)=O)cc2Cl)cc1Cl [Example 601]  middle
15  COc1cc(C(=O)NS(C)(=O)=O)ccc1-c1cnc(Oc2c(C)cccc2Cl)c(Cl)c1 [Example 327]  middle
16  Cc1cc(C(=O)NS(C)(=O)=O)c(F)cc1-c1cnc(O[C@@H](C)c2cccc3ccccc23)c(Cl)c1 [Example 682]     low

---

Target: human Nav1.7 (Homo sapiens (Human))
Assay: Nav 1.7 in vitro PatchXpress (PX) assay
Type: cell-based
Measured quantity: IC50 (nM)

> print(dat)
                                     smiles                    target.under.test  measured.quantity  result.number
1  COc1cc(C(=O)NS(C)(=O)=O)ccc1-c1cnc(N2CCC[C@H]2C(C)C)c(Cl)c1  human Nav1.7 (Homo sapiens (Human))               IC50           87.7
2  Cc1cc(C(=O)NS(C)(=O)=O)c(F)cc1-c1cnc(Oc2ccccc2-c2ccccc2)c(Cl)c1  human Nav1.7 (Homo sapiens (Human))               IC50           88.3
3  Cc1cc(C(=O)NS(C)(=O)=O)c(F)cc1-c1cnc(Oc2ccc(Cl)cc2C(F)(F)F)c(Cl)c1  human Nav1.7 (Homo sapiens (Human))               IC50           87.5
4  CC[C@H](Oc1ncc(-c2cc(F)c(C(=O)NS(C)(=O)=O)cc2C)cc1Cl)c1cccc(Cl)c1  human Nav1.7 (Homo sapiens (Human))               IC50           58.6
5  COc1cc(C(=O)NS(C)(=O)=O)ccc1-c1cnc(Oc2ccc(C)cc2Cl)c(Cl)c1  human Nav1.7 (Homo sapiens (Human))               IC50           91.5
6  COc1ncc(Oc2ncc(-c3ccc(C(=O)NS(C)(=O)=O)cc3OC(F)F)cc2Cl)cc1Cl  human Nav1.7 (Homo sapiens (Human))               IC50           92.2
7  Cc1cc(Cl)cc(Cl)c1Oc1ncc(-c2cc(F)c(C(=O)NS(C)(=O)=O)cc2F)cc1Cl  human Nav1.7 (Homo sapiens (Human))               IC50           59.8

---

Biological target: human Nav1.7 (Homo sapiens (Human), UniProt Q15858)
Sequence (Q15858 whole entry): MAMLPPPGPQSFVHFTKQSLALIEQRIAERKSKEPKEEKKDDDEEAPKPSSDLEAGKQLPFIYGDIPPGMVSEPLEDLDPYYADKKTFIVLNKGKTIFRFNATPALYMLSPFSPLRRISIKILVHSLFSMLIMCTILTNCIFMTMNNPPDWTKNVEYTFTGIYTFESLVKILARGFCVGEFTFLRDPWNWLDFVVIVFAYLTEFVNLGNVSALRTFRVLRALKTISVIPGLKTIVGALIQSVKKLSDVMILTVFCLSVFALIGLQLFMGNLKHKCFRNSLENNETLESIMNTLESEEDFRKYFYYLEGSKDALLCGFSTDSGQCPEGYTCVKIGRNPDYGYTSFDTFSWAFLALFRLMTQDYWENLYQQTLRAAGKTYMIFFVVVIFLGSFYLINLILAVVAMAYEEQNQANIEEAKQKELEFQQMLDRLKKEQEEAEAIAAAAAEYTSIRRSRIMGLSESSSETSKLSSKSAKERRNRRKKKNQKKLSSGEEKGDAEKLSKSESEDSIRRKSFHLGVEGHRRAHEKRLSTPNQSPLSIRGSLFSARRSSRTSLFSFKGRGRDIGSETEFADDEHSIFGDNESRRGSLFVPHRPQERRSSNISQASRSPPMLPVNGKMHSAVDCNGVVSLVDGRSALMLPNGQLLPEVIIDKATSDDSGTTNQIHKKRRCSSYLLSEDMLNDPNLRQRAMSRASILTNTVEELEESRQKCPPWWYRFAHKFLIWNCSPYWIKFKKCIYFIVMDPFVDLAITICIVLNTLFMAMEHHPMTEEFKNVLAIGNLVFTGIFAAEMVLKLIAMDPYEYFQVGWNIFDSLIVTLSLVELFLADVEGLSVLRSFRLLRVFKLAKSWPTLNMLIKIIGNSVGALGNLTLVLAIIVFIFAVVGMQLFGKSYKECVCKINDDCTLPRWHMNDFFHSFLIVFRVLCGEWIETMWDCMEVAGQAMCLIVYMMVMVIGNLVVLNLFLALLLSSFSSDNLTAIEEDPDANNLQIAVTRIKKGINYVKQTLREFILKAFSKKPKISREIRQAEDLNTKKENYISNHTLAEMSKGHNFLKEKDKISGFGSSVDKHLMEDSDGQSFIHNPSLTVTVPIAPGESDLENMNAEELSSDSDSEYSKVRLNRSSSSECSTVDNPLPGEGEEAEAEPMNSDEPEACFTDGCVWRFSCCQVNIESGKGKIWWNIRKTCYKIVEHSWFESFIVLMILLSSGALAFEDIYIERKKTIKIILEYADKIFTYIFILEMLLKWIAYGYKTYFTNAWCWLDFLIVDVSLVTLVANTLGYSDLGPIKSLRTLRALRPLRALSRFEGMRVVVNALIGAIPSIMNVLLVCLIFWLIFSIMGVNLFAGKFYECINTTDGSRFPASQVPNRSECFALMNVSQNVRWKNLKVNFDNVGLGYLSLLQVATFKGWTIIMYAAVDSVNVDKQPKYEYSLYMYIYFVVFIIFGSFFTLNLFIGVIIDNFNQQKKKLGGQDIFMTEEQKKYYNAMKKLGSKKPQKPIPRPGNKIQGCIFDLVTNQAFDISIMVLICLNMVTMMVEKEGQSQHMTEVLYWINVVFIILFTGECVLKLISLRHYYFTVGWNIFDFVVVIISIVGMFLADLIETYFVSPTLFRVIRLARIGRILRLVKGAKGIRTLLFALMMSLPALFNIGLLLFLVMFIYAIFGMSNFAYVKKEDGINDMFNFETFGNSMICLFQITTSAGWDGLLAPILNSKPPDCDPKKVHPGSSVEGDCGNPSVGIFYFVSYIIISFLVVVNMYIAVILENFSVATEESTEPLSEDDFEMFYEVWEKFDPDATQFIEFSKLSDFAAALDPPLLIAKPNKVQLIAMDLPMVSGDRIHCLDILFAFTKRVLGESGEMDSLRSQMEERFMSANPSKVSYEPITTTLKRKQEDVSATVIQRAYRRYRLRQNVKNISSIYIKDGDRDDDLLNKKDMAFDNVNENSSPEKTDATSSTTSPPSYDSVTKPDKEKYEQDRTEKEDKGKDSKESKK
Assay: Nav 1.7 in vitro PatchXpress (PX) assay
Format: cell-based
Conditions: in-vitro Nav 1.7 PX data
pIC50: −log10 of the molar value.
Measured quantity: pIC50

> print(dat)
                                      smiles  result.number
 1  COc1cc(C(=O)NS(C)(=O)=O)c(F)cc1-c1cnc(O[C@@H](C)CC(C)C)c(Cl)c1           7.09
 2  COc1cc(C(=O)NS(C)(=O)=O)ccc1-c1cnc(COc2ccc(Cl)c(Cl)c2)c(Cl)c1           7.10
 3  Cc1cc(Cl)cc(Cl)c1Oc1ncc(-c2cc(F)c(C(=O)NS(C)(=O)=O)cc2F)cc1C#N           7.10
 4  COc1cc(C(=O)NS(C)(=O)=O)ccc1-c1cnc(Oc2cc(Cl)cc(Cl)c2)c(C)c1           7.08
 5  CCS(=O)(=O)NC(=O)c1ccc(-c2cnc(Oc3c(F)ccc(F)c3F)c(Cl)c2)c(OC)c1           7.40
 6  COc1cc(C(=O)NS(C)(=O)=O)c(F)cc1-c1cnc(OCc2ccc(Cl)cc2)c(Cl)c1           7.13
 7  COc1cc(C(=O)NS(C)(=O)=O)c(F)cc1-c1cnc(SCc2cc(F)ccc2F)c(Cl)c1           7.23
 8  Cc1cc(C(=O)NS(C)(=O)=O)c(F)cc1-c1cnc(-c2cc(F)cc(F)c2)c(Cl)c1           6.30
 9  CCS(=O)(=O)NC(=O)c1cc(C)c(-c2cnc(Oc3c(C)cc(Cl)cc3Cl)c(Cl)c2)cc1F           7.02
10  COc1cc(C(=O)NS(C)(=O)=O)c(F)cc1-c1cnc(OCC2C(C)(C)C2(C)C)c(Cl)c1           6.84
11  COc1cc(C(=O)NS(C)(=O)=O)c(F)cc1-c1cnc(Oc2cc(C)ccc2Cl)c(Cl)c1           7.38
12  COc1cc(C(=O)NS(C)(=O)=O)c(F)cc1-c1cnc(N[C@@H]2CCC23CCC3)c(Cl)c1           6.96
13  CNS(=O)(=O)NC(=O)c1ccc(-c2cnc(Oc3cc(Cl)cc(Cl)c3)c(Cl)c2)c(OC)c1           7.09
14  COc1cc(C(=O)NS(C)(=O)=O)c(F)cc1-c1cnc(Oc2c(F)ccc(F)c2F)c(Cl)c1           7.02
15  COc1cc(C(=O)NS(C)(=O)=O)c(F)cc1-c1cnc(Oc2cccc(Cl)c2)c(Cl)c1           7.07

---

Biological target: human Nav1.7 (Homo sapiens (Human), UniProt Q15858)
Test: Nav 1.7 in vitro PatchXpress (PX) assay
Assay type: cell-based
Conditions: in-vitro Nav 1.7 PX data
pIC50: −log10 of the molar value.
Measured quantity: pIC50

> print(dat)
                                   compound  result.number
1  COc1cc(C(=O)NS(C)(=O)=O)c(F)cc1-c1cnc(Oc2cc(F)c(Cl)c(F)c2)c(Cl)c1           7.33
2  Cc1cc(C(=O)NS(=O)(=O)C2CC2)c(F)cc1-c1cnc(Oc2c(C)cc(Cl)cc2Cl)c(Cl)c1           7.25
3  Cc1cc(C(=O)NS(C)(=O)=O)c(F)cc1-c1ccc(OC(F)(F)C(F)F)cc1           5.80
4  COc1cc(C(=O)NS(C)(=O)=O)c(F)cc1-c1cnc(OC(C)C2CCC2)c(Cl)c1 (centres unmarked)           7.05
5  COc1cc(C(=O)NS(C)(=O)=O)c(F)cc1-c1cnc(NCCC2CCCC2)c(Cl)c1           6.97
6  COc1cc(C(=O)NS(C)(=O)=O)c(F)cc1-c1cnc(NCC2CCC(C)(C)CC2)c(Cl)c1           7.06
7  CCOc1cc(C(=O)NS(C)(=O)=O)c(F)cc1-c1cnc(Oc2cccc(Cl)c2C)c(Cl)c1           7.02
8  COc1cc(C(=O)NS(=O)(=O)N2CCC2)ccc1-c1cnc(Oc2cc(Cl)cc(Cl)c2)c(Cl)c1           6.94
